Origin of measurements: patent US8673911B2

Recorded IC50 values for a group of compounds are listed next.
target: one or more of HDAC4, HDAC5, HDAC6, HDAC7, HDAC8, HDAC9 and HDAC11; assay: Inhibition of histone deacetylase enzymatic activity (fluorogenic Boc-Lys(Ac)-AMC / Boc-Lys(trifluoroacetyl)-AMC substrate); conditions: against one or more of HDAC4, HDAC5, HDAC6, HDAC7, HDAC8, HDAC9 and HDAC11

INSERT INTO results (compound, reported_property, result) VALUES
  ('COc1ccc(-c2nc(-c3ccc(F)cc3)c(C(=O)NO)s2)cc1 [Compound 80]', 'IC50', '< 250 nM'),
  ('O=C(NO)c1sc(-c2ccccc2)cc1-c1ccccc1 [Compound 89]', 'IC50', '250 to 500 nM'),
  ('O=C(NO)c1ccccc1-c1cccc(F)c1 [Compound 27]', 'IC50', '750 to 5000 nM'),
  ('O=C(NO)c1sc(-c2csc3ccccc23)nc1-c1ccccc1 [Compound 110]', 'IC50', '< 250 nM'),
  ('O=C(NO)c1sc(N2CCCc3ccccc32)nc1-c1ccccc1 [Compound 121]', 'IC50', '< 250 nM');

Ask: Record request: IC50 value, item O=C(NO)c1sc(C2CCN(Cc3ccncc3)CC2)nc1-c1ccccc1 [Compound 144]
Reply: < 250 nM

Ask: Thanks! And O=C(Nc1ccc2sc(C(=O)NO)c(-c3ccccc3)c2c1)OCc1ccccc1 [Compound 131] ?
Reply: 500 to 750 nM

Ask: Thanks! And O=C(NO)c1sc(-c2ccc(N3CCOCC3)cc2)nc1-c1ccccc1 [Compound 109] ?
Reply: < 250 nM

###

biological target: one or more of HDAC4, HDAC5, HDAC6, HDAC7, HDAC8, HDAC9 and HDAC11; experiment: Inhibition of histone deacetylase enzymatic activity (fluorogenic Boc-Lys(Ac)-AMC / Boc-Lys(trifluoroacetyl)-AMC substrate); conditions: against one or more of HDAC4, HDAC5, HDAC6, HDAC7, HDAC8, HDAC9 and HDAC11
REPORTED_PROPERTY: IC50

INSERT INTO assay_data (molecular_string, result) VALUES
  ('O=C(NO)c1sc(N2CCCCC2)nc1-c1ccccc1', '< 250 nM'),
  ('O=C(NO)c1sc(-c2ccccn2)nc1-c1ccccc1', '250 to 500 nM');

Ask: Record request: IC50 value, item O=C(NO)c1sc(C2CCN(S(=O)(=O)c3ccccc3)CC2)nc1-c1ccccc1
Reply: < 250 nM
